# System: CAKI-1 renal
# experiment-summary: NCI tumour cell line growth inhibition, 48 h
property-measured: TGI (µM)
One number for each entry, in µM.

// below: answered compounds
smiles-entry: Cl/C(=C\C=Nc1ccc(I)cc1)c1ccc2ccccc2c1
property-measured: TGI
recorded-measurement: 29
--
smiles-entry: C/C(=N\NC(=S)N(C)CCN(C)C(=S)N/N=C(\C)c1ccccn1)c1ccccn1
property-measured: TGI
recorded-measurement: 11.8

Attention now turns to another entry.
Prompt: Give its TGI value. Item: Nc1nc(Nc2ccccc2)sc1C(=O)c1cccs1
Response: 62.3

---

# System: BT-549 breast
# experiment-summary: NCI tumour cell line growth inhibition, 48 h
Can you tell me TGI for the items I'm about to list?
Please answer in the form of a number followed by its unit of measurement.

molecule: S=C(N/N=C(/c1ccccc1)c1ccccn1)N1CCCCCC1
measured-target: BT-549 breast
recorded-measurement: 2.07 µM
//
molecule: COc1cc(O)c2c(c1)C(=O)c1cc3c(c(O)c1C2=O)C(OC1OC(C)C(O)C(O)C1OC)C(OC)C(C)(O)C3=O (stereo not drawn)
measured-target: BT-549 breast
recorded-measurement: 5.18 µM

Attention now turns to another entry.
Prompt: Give its TGI value. Item: CCN(CC)CCCC(C)N=c1cc(Nc2cc(=NC(C)CCCN(CC)CC)c3cc(OC)ccc3o2)oc2ccc(OC)cc12 (stereo not drawn)
Response: 9.49 µM
